measuredTarget: urate transporter 1 (URAT1) (Homo sapiens)
Construct: gene SLC22A12
Sequence (Q96S37 1-553): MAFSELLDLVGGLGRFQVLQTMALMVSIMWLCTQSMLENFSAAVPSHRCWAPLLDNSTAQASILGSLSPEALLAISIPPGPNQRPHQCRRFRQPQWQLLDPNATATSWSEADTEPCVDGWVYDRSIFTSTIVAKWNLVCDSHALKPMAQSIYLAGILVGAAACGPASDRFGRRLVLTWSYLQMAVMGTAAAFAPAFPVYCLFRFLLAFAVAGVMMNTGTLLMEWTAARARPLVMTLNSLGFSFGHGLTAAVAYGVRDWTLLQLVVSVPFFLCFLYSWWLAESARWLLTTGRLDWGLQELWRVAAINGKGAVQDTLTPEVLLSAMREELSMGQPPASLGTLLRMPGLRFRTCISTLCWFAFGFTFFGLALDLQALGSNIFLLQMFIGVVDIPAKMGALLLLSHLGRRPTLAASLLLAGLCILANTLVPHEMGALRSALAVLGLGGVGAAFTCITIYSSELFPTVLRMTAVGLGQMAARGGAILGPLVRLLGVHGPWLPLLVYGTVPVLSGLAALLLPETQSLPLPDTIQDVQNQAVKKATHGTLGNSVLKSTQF
assayProcedure: non-isotopic uric acid uptake inhibition in URAT1-overexpressing HEK293 cells (positive control drug)
Assay type: cell-based
quantityName: IC50 (nM)
Hi! Could you send only the number? It should be in nM, unit omitted.

urate transporter 1 (URAT1) (Homo sapiens) IC50 of O=C(O)C1(Sc2ccnc3ccc(Br)cc23)CCC1 is 130
